assay.system: hGLP-1R (Homo sapiens, UniProt P43220)
Sequence (P43220 24-463): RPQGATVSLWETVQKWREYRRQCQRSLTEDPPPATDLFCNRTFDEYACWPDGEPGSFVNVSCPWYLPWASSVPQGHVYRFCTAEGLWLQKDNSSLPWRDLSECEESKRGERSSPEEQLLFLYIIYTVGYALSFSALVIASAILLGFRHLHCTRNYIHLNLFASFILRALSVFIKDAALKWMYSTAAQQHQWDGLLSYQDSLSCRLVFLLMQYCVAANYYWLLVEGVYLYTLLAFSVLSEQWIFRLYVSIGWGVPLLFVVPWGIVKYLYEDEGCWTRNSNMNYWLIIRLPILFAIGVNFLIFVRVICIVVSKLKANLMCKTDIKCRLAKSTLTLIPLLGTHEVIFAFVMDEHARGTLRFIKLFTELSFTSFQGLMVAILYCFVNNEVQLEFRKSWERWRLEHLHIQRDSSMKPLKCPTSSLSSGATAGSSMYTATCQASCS
assay.overview: Functional cAMP activation in the presence of 0.1% casein (no HSA);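 further: intracellular cAMP rise after 30 min at 37 °C read by HTRF, normalized between buffer only (0%) and maximal control ligand (100%), four-parameter variable-slope fit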
Type: cell-based
experimental.parameters: read-out: Relative cAMP EC50, hGLP-1R
Starred links: 1 amine or outer side, 2 acyl side, 3 side chain; linkers in the order of their positions; H or OH if unused. Non-standard residues stand in square brackets, D forms with d. Groups on a side chain read outwards from the residue. No end group written: not given here. *: point of attachment. C18 diacid = O=C(O)CCCCCCCCCCCCCCCCC(=O)*; αMePhe(2-F) = C[C@](N)(Cc1ccccc1F)C(=O)O; γGlu = O=C(O)[C@H](CCC(=O)[*:2])N[*:1]; αMe4Pal = C[C@](N)(Cc1ccncc1)C(=O)O; αMeY = C[C@](N)(Cc1ccc(O)cc1)C(=O)O; 4Pal = N[C@@H](Cc1ccncc1)C(=O)O; αMeL = CC(C)C[C@](C)(N)C(=O)O; αMeS = C[C@](N)(CO)C(=O)O; Orn = NCCC[C@H](N)C(=O)O; AEEA = NCCOCCOCC(=O)O; Aib = CC(C)(N)C(=O)O
measured.endpoint: EC50 (nM)

substance	assay.system	unit.descriptor	measured.number
H-Y[Aib]QGT[αMePhe(2-F)]TSD[4Pal][αMeS]I[αMeL]LD[Orn]K([AEEA-γGlu-C18 diacid])AA[Aib]EFI[dE][αMeY]LIEGGPSSGAPPPSGTGQ-OH [Example 724]	hGLP-1R (Homo sapiens, UniProt P43220)	nM	0.256
Y[Aib]QGT[αMePhe(2-F)]TSD[4Pal][αMeS]I[αMeL]LD[Orn]K([γGlu-γGlu-C18 diacid])AQ[αMe4Pal]EFI[dE][αMeY]LVEGGPSSGEPPPSGSEE-NH2 [Example 740]	hGLP-1R (Homo sapiens, UniProt P43220)	nM	0.453
H-Y[Aib]QGT[αMePhe(2-F)]TSD[4Pal]SI[αMeL]LD[Orn]K([AEEA-γGlu-C18 diacid])AQ[αMe4Pal]EFI[dE][αMeY]LQEGGPSSGEPPPSGS-NH2 [Example 648]	hGLP-1R (Homo sapiens, UniProt P43220)	nM	1.76
